Target: GLP-1R (Homo sapiens, UniProt P43220)
Sequence (P43220 24-463): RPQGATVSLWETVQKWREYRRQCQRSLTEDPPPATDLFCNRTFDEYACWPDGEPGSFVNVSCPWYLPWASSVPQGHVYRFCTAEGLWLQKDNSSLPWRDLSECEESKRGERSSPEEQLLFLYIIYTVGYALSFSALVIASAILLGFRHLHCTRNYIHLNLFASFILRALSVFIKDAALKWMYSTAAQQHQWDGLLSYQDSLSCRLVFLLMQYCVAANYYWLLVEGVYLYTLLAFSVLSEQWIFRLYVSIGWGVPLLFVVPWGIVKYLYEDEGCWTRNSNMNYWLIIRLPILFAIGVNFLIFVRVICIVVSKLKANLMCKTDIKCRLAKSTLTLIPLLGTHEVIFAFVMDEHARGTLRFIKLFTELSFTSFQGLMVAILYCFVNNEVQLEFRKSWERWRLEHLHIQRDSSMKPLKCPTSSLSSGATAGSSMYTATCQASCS
Experiment: GLP-1R activation cAMP assay (Assay 1 or Assay 2)
Details: cAMP increase in CHO cells stably expressing GLP-1R; compounds run on one of the two cAMP assays
Experimental: GLP-1R ACTIVATION—cAMP Assay 1 GLP-1R activation by compounds of the present disclosure was quantified by measuring cAMP increase in CHO cells stably expressing GLP-1R (MultiSpan product #C1267-1a). […] The tested GLP-1 compound was added to the cells in a 10-point dose response followed by a 30-minute incubation at 37° C., 5% CO2. cAMP concentration increase was then detected using Cisbio's cAMP Gs Dynamic Kit (product #62AM4PEC) according to the manufacturer's protocol. […]
Lab note: compare EC50 with 0.2 nM, writing MET if less and NOT MET if equal or more.

Example results:
{"compound": "NC(=O)c1ccc(COc2cccc(-c3cc(F)c(Cc4nc5ccc(C(=O)O)cc5n4C[C@@H]4CCO4)cc3F)n2)c(F)n1 [Example 240]", "classification": "NOT MET"}
{"compound": "Cn1cc(C#Cc2ccc(COc3cccc(-c4cc(F)c(Cc5nc6ccc(C(=O)O)cc6n5C[C@@H]5CCO5)cc4F)n3)c(Cl)n2)cn1 [Example 363]", "classification": "NOT MET"}
{"compound": "Cn1cc(C#Cc2cnc(COc3cccc(-c4cc(F)c(Cc5nc6ccc(C(=O)O)cc6n5C[C@@H]5CCO5)cc4F)n3)c(F)c2)cn1 [Example 143]", "classification": "MET"}
{"compound": "CCOc1nnc(COc2nc(-c3cc(F)c(Cc4nc5ccc(C(=O)O)cc5n4CC4(CF)CC4)cc3F)ccc2F)s1 [Example 256]", "classification": "NOT MET"}
{"compound": "O=C(O)c1ccc2nc(Cc3cc(F)c(-c4cccc(OCc5ncc(C#CC6CCOC6)s5)n4)cc3F)n(C[C@@H]3CCO3)c2c1 (stereo partly shown) [Example 322]", "classification": "NOT MET"}
{"compound": "NC(=O)c1cc(COc2cccc(-c3cc(F)c(Cc4nc5ccc(C(=O)O)cc5n4C[C@@H]4CCO4)cc3F)n2)cs1 [Example 129]", "classification": "NOT MET"}

Prompt: Identify whether the compound CC1(C)COC[C@@H]1n1c(Cc2cc(F)c(-c3cccc(OCc4ccc(C(=O)NC5(C#N)CC5)nc4)n3)cc2F)nc2ccc(C(=O)O)cc21 [Example 202] records EC50 below 0.2 nM.
Response: NOT MET

Prompt: Identify whether the compound CC1(C)COC[C@@H]1n1c(Cc2cc(F)c(-c3cccc(OCc4ncc(C#N)s4)n3)cc2F)nc2ccc(C(=O)O)cc21 [Example 182] records EC50 below 0.2 nM.
Response: MET

---

biological target: GLP-1R (Homo sapiens, UniProt P43220); assay: GLP-1R activation cAMP assay (Assay 1 or Assay 2); conditions: cAMP increase in CHO cells stably expressing GLP-1R; compounds run on one of the two cAMP assays
observed-property: pEC50
Kindly note that pEC50 refers to -log10 of the concentration in mol/L and answer with the value alone.

Some solved cases for reference:
{"molecule": "CNC(=O)c1cc(Cl)c(COc2cc(-c3cc(F)c(Cc4nc5c(F)cc(C(=O)O)cc5n4C[C@@H]4CCO4)cc3F)ccc2F)cn1 [Example 388]", "target-desc": "GLP-1R (Homo sapiens, UniProt P43220)", "pEC50": 9.73}
{"molecule": "Cn1cc(C#Cc2cnc(COc3cccc(-c4cc(F)c(Cc5nc6ccc(C(=O)O)cc6n5C[C@@H]5CCO5)cc4F)n3)s2)cn1 [Example 114]", "target-desc": "GLP-1R (Homo sapiens, UniProt P43220)", "pEC50": 9.96}
{"molecule": "O=C(O)c1ccc2nc(Cc3cc(F)c(-c4cccc(OCc5cn(C6CC6)nn5)n4)cc3F)n(C[C@@H]3CCO3)c2c1 [Example 210]", "target-desc": "GLP-1R (Homo sapiens, UniProt P43220)", "pEC50": 7.81}

Quick note, pEC50 for CC1(C)COC[C@H]1n1c(Cc2cc(F)c(-c3cccc(OCc4nnc(C(F)F)s4)n3)cc2F)nc2ccc(C(=O)O)cc21 [Example 432] landed at 10.03

Quick note, pEC50 for O=C(O)c1ccc2nc(Cc3cc(F)c(-c4cccc(OCc5cnc(C(=O)NC6(C(F)F)CC6)cc5Cl)n4)cc3F)n(C[C@@H]3CCO3)c2c1 [Example 186] landed at 9.04

Quick note, pEC50 for COc1nnc(COc2nc(-c3cc(F)c(Cc4nc5ccc(C(=O)O)cc5n4CC4(CF)CC4)cc3F)ccc2F)s1 [Example 268] landed at 9.12

Quick note, pEC50 for O=C(O)c1cc(F)c2nc(Cc3cc(F)c(-c4cccc(OCc5ncc(-c6cnn(C(F)F)c6)s5)n4)cc3F)n(C[C@@H]3CCO3)c2c1 [Example 85] landed at 10.30

Quick note, pEC50 for CC1(C#Cc2ccc(COc3cccc(-c4cc(F)c(Cc5nc6ccc(C(=O)O)cc6n5C[C@@H]5CCO5)cc4F)n3)s2)COC1 [Example 113] landed at 9.80

Quick note, pEC50 for COc1nnc(COc2cccc(-c3cc(Cl)c(Cc4nc5ccc(C(=O)O)cc5n4[C@@H]4COCC4(C)C)cc3C)n2)s1 [Example 442] landed at 9.17

Quick note, pEC50 for O=C(O)c1cc(Cl)c2nc(Cc3cc(F)c(-c4cccc(OCc5ncc(C(F)(F)F)s5)n4)cc3F)n(C[C@@H]3CCO3)c2c1 [Example 445] landed at 10.00

Quick note, pEC50 for O=C(O)c1ccc2nc(Cc3cc(F)c(-c4cccc(OCc5ncc(C#CC6(C(F)F)CC6)s5)n4)cc3F)n(C[C@@H]3CCO3)c2c1 [Example 326] landed at 9.35

Quick note, pEC50 for O=C(O)c1ccc2nc(Cc3cc(F)c(-c4cccc(OCc5ncc(-c6cncnc6)s5)n4)cc3F)n(C[C@@H]3CCO3)c2c1 [Example 105] landed at 9.85

Quick note, pEC50 for N#CCn1nccc1COc1cccc(-c2cc(F)c(Cc3nc4ccc(C(=O)O)cc4n3C[C@@H]3CCO3)cc2F)n1 [Example 239] landed at 6.35
